Hi there, I'd appreciate the recorded log10 of EC50 for every entry that follows.
# Tested on: Trypanosoma brucei Lister 427 VSG221 with APOL1 G1 recombinant protein
# test: APOL1 G1 trypanosome cell rescue assay (Example B5)
# Type: cell-based
# measurement.context: Trypanosoma brucei, 20 h, read-out: APOL1 G1 Trypanosome Rescue EC50, Trypanosoma brucei Lister 427 VSG221 with APOL1 G1 recombinant protein, 20 hours, CellTiter-Glo; geometric mean of at least 2 assay runs; † = single assay run
Heads up, the numbers here are log10 of EC50 in nM units.

Check out these entries, answers already filled in.
{"compound": "O=C(c1ccc(OCCN2CCC3(CC2)C(=O)Nc2ccc(Cl)cc23)cc1F)N1CCC1", "property": "log10 of EC50", "meas.value": 2.68}
{"compound": "CC(C)N1C(=O)CCc2cc(OCCN3CCC4(CC3)C(=O)Nc3ccc(C#N)cc34)ccc21", "property": "log10 of EC50", "meas.value": 2.16}
{"compound": "O=C1Nc2ccc(Cl)cc2C12CCN(CCOc1cnc(N3CC(O)C3)nc1)CC2", "property": "log10 of EC50", "meas.value": 2.65}
{"compound": "Cc1cc(OCCN2CCC3(CC2)C(=O)Nc2ccc(C#N)cc23)ccc1S(C)(=O)=O", "property": "log10 of EC50", "meas.value": 2.56}
{"compound": "CNC(=O)c1ccc(OCCN2CCC3(CC2)C(=O)Nc2ccc(Cl)cc23)cc1F", "property": "log10 of EC50", "meas.value": 2.89}
{"compound": "Cc1cc(OCCN2CCC3(CC2)C(=O)Nc2ccc(Cl)cc23)cnc1S(C)(=O)=O", "property": "log10 of EC50", "meas.value": 2.03}

# per-item lookup of log10 of EC50; items listed below
1. CS(=O)(=O)c1ccc(OCCN2CCC3(CC2)C(=O)Nc2ccc(C#N)cc23)cc1OC(F)F
2. CC(=O)c1ncc(OCCN2CCC3(CC2)C(=O)Nc2ccc(C#N)cc23)cc1C(F)(F)F
3. O=C1CCc2cc(OCCN3CCC4(CC3)C(=O)Nc3ccc(Cl)cc34)cnc2N1[C@H]1C[C@@H](O)C1
4. CC1(Oc2ncc(OCCN3CCC4(CC3)C(=O)Nc3ccc(Cl)cc34)cn2)COC1
5. CS(=O)(=O)C1CN(c2ncc(OCCN3CCC4(CC3)C(=O)Nc3ccc(Cl)cc34)cn2)C1
6. CC(COc1ccc(C2(S(C)(=O)=O)COC2)cc1)N1CCC2(CC1)C(=O)Nc1ccc(C#N)cc12 (single isomer, unassigned)
7. CN1c2ccc(OCCN3CCC4(CC3)C(=O)Nc3ccc(C#N)cc34)cc2CCS1(=O)=O

## Result
2.54
2.19
2.02
2.55
2.70
2.51
2.86

###

# assay.target: APOL1 G2 (Homo sapiens, UniProt O14791, DEL388-389)
# Construct: expressed in transfected cells; host or cells: HEK293 T-REx clonal line stably expressing GCaMP6f (HEK T-REx/GCaMP6f/APOL1 G2 K6.3), doxycycline induced
# Sequence (O14791 with tags, fused parts or gaps DEL388-389): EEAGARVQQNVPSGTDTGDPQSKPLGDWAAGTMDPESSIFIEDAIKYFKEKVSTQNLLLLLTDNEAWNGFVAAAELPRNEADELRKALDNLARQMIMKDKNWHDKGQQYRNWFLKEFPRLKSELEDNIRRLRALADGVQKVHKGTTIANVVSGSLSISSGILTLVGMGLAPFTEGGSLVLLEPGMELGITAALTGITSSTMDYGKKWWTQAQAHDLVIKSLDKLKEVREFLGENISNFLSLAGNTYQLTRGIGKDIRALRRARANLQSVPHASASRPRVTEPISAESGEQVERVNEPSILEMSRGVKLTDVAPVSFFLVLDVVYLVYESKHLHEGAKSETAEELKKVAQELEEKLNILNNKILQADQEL
# test: APOL1-mediated calcium transport (calcium influx) assay, HEK T-REx/GCaMP6f/APOL1 G2 K6.3 cells, FLIPR TETRA
# Format: cell-based
# measurement.context: prevention of calcium influx; geometric mean of at least 2 assay runs; † = average of a technical replicate from a single assay run
I'd be grateful if you could share measured AC50 for these entries.
Answers are plain numbers, in nM.

Examples with their reported AC50 follow.
{"compound": "CS(=O)(=O)N1CC2(CN(C(=O)c3ccc(OCCN4CCC5(CC4)C(=O)Nc4ccc(Cl)cc45)cc3F)C2)C1 [Compound 273]", "measurement.units": "nM", "AC50": 2100}
{"compound": "CC(C)N1C(=O)CCc2cc(OCCN3CCC4(CC3)C(=O)Nc3ccc(Cl)cc34)ccc21 [Compound 97]", "measurement.units": "nM", "AC50": 823}
{"compound": "COCCN1C(=O)C2(CCN(CCOc3ccc(S(C)(=O)=O)cc3)CC2)c2cc(C#N)ccc21 [Compound 25]", "measurement.units": "nM", "AC50": 651}

Provide each entry's AC50 from the list below.
1. CS(=O)(=O)c1ccc(OCCN2CCC3(CC2)C(=O)Nc2ccc(Cl)cc23)cc1F [Compound 63]
2. CS(=O)(=O)c1ccc(OCCN2CCC3(CC2)C(=O)Nc2ccc(Cl)cc23)c(F)c1 [Compound 48]
3. O=C1Nc2ccc(Cl)cc2C12CCN(CCOc1ccc3c(cnn3[C@H]3C[C@@H](O)C3)c1)CC2 [Compound 85]
4. [2H]C([2H])([2H])N1C(=O)C2(CCN(CCOc3cnc(C4(CO)CC4)nc3)CC2)c2cc(Cl)ccc21 [Compound 420]

## Result
1. 461
2. 567
3. 564
4. 892

I need AC50 for every entry listed below, if you could help.
1. CS(=O)(=O)c1ccc(OCCN2CCC3(CC2)C(=O)Nc2ccc(Cl)cc23)cc1 [Compound 69]
2. CC1(O)CC(CN2C(=O)CCc3cc(OCCN4CCC5(CC4)C(=O)Nc4ccc(Cl)cc45)cnc32)C1 (single isomer, unassigned) [Compound 322]
3. O=C(c1ccc(OCCN2CCC3(CC2)C(=O)Nc2ccc(Cl)cc23)cc1F)N1CCS(=O)(=O)CC1 [Compound 232]
4. CC(=O)N1CCCc2cc(OCCN3CCC4(CC3)C(=O)Nc3ccc(Cl)cc34)ccc21 [Compound 56]
5. O=C1CCc2cc(OCCN3CCC4(CC3)C(=O)Nc3ccc(Cl)cc34)ccc2N1C1COC1 [Compound 99]
6. CS(=O)(=O)c1ccc(OCCN2CCC3(CC2)C(=O)Nc2c(Cl)cc(C#N)cc23)cc1 [Compound 8]
7. CN1C(=O)Cc2cc(OCCN3CCC4(CC3)C(=O)Nc3ccc(C#N)cc34)cc(F)c21 [Compound 169]
8. CN(C)c1ncc(OCCN2CCC3(CC2)C(=O)Nc2ccc(Cl)cc23)cn1 [Compound 303]

## Result
1: 216; 2: 588; 3: 1010; 4: 1010; 5: 643; 6: 833; 7: 1210; 8: 822

Each compound below has a reported value. Please supply its AC50.
1. CS(=O)(=O)C1(c2ccc(OCCN3CCC4(CC3)C(=O)Nc3ccc(C#N)cc34)cc2)CC2(COC2)C1 [Compound 183]
2. CS(=O)(=O)C1(c2ccc(OCCN3CCC4(CC3)C(=O)Nc3ccc(C#N)cc34)cc2)COC1 [Compound 109]

## Result
[1520, 1190]

Parameters: items (list). Returns: AC50 for each item.
1. CC(c1c(F)cc(OCCN2CCC3(CC2)C(=O)Nc2ccc(Cl)cc23)cc1F)S(C)(=O)=O (single isomer, unassigned) [Compound 142]
2. O=C1Nc2ccc(Cl)cc2C12CCN(CCOc1ccc3[nH]ncc3c1)CC2 [Compound 87]
3. C[C@]1(O)C[C@H](n2ncc3cc(OCCN4CCC5(CC4)C(=O)Nc4ccc(Cl)cc45)cnc32)C1 (single isomer, unassigned) [Compound 408]

## Result
1: 845; 2: 375; 3: 283

Batch request: AC50 per item, same order as input.
1. CS(=O)(=O)c1ccc(OCCN2CCC3(CC2)C(=O)Nc2ccc(C#N)cc23)cc1 [Compound 71]
2. CC(C)(O)c1ncc(OCCN2CCC3(CC2)C(=O)Nc2c(I)cc(Cl)cc23)cn1 [Compound 449]
3. O=C1CCc2cc(OCCN3CCC4(CC3)C(=O)Nc3ccc(Cl)cc34)cnc2N1[C@H]1C[C@@](O)(C2CC2)C1 (single isomer, unassigned) [Compound 297]
4. CS(=O)(=O)c1ccc(OCCN2CCC3(CC2)C(=O)Nc2ccc(Cl)cc23)cc1C(F)(F)F [Compound 108]

## Result
626
609
937
860

# compound O=C1NCC2c3ccc(OCCN4CCC5(CC4)C(=O)Nc4ccc(Cl)cc45)cc3CCN12 (stereo not shown) [Compound 115] ; its AC50 = 472

The measurements presented in this section are drawn from patent US12344610B2.
